- EXPERIMENT SUMMARY: Aqueous solubility of the compound
- Format: physicochemical
- MEASUREMENT SETUP: water
QUANTITY NAME: solubility (mg/mL)

>>> print(df.to_string())
                         compound_structure  units_symbol  result
0  CSS/C(CCOC(=O)[C@@H](N)CCCCN)=C(/C)N(C=O)CCCCCCCCCCCCN(C=O)/C(C)=C(/CCOC(=O)[C@@H](N)CCCCN)SSC.Cl.Cl         mg/mL      27
1  C/C1=C(\CCOC(=O)[C@@H](N)CCCCN)SS/C(CCOC(=O)[C@@H](N)CCCCN)=C(/C)N(C=O)CCCCCCCCCCCCN1C=O.Cl.Cl         mg/mL      27
